- Test system: HIV-1 (H9/IIIB strain)
- method-description: Multiple round HIV-1 infection assay (Viking assay) in MT4-GFP cells
- Type: cell-based
- test-context: HIV-1 replication in MT4-GFP cells; 50% NHS (normal human serum); read-out: Viking, IC50 (50% NHS)
property-name: pIC50
# reply with the number alone; pIC50 is -log10 of concentration in mol/L

CC(C)OC(=O)C(C)(C)NP(=O)(CO[C@H](C)Cn1cnc2c(N)ncnc21)NC(=O)c1ccncn1 (single isomer, unassigned) [Example 13A]	5.67
COc1ccc(C(=O)NP(=O)(CO[C@H](C)Cn2cnc3c(N)ncnc32)NC(C)(C)C(=O)OC(C)C)cc1 (single isomer, unassigned) [Example 17A]	7.27
CC(C)OC(=O)C(C)(C)NP(=O)(CO[C@H](C)Cn1cnc2c(N)ncnc21)NC(=O)c1ccc(F)cc1 (single isomer, unassigned) [Example 10A]	6.58

Per the records, this molecule ( CCOC(=O)C(C)(C)NP(=O)(CO[C@H](C)Cn1cnc2c(N)ncnc21)NC(=O)c1ccc(C(C)(C)C)cc1 (single isomer, unassigned) [Example 22A] ) has pIC50 equal to 7.32

Per the records, this molecule ( C[C@H](Cn1cnc2c(N)ncnc21)OCP(=O)(NC(=O)c1ccc(Cl)cc1)NC(C)(C)C(=O)OC1CCC1 (single isomer, unassigned) [Example 6B] ) has pIC50 equal to 7.87

Per the records, this molecule ( CCCCCOC(=O)C(C)(C)NP(=O)(CO[C@H](C)Cn1cnc2c(N)ncnc21)NC(=O)c1ccccc1OC (single isomer, unassigned) [Example 16B] ) has pIC50 equal to 6.86

Per the records, this molecule ( CCOCCOC(=O)C(C)(C)NP(=O)(CO[C@H](C)Cn1cnc2c(N)ncnc21)NC(=O)c1ccc(Cl)cc1 (single isomer, unassigned) [Example 8B] ) has pIC50 equal to 7.21

Per the records, this molecule ( CC(C)OC(=O)C(C)(C)NP(=O)(CO[C@H](C)Cn1cnc2c(N)ncnc21)NC(=O)c1cnccn1 (single isomer, unassigned) [Example 14B] ) has pIC50 equal to 6.50

Per the records, this molecule ( CCOC(=O)C(C)(C)NP(=O)(CO[C@H](C)Cn1cnc2c(N)ncnc21)NC(=O)c1ccc(C(C)(C)C)cc1 (single isomer, unassigned) [Example 22B] ) has pIC50 equal to 7.80
